Target of assay: Tyrosine-protein kinase Fes/Fps (Homo sapiens);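 further: mean inhibition of FES from the GSK PKIS kinase inhibitor screening set, assayed by Nanosyn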
Condition details: at 1 µM
Please note: T applies when inhibition is 2% or greater, and F applies otherwise.

| Compound | Target of assay | Assigned label |
| --- | --- | --- |
| COc1cc2ncn(-c3cc(OCc4ccccc4Cl)c(C(N)=O)s3)c2cc1OC | Tyrosine-protein kinase Fes/Fps (Homo sapiens) | F |
| Cc1nnc(-c2ccc(C)c(-c3ccc(C(=O)Nc4cccc(C#N)c4)cc3)c2)o1 | Tyrosine-protein kinase Fes/Fps (Homo sapiens) | T |
| NS(=O)(=O)c1ccc(N/N=C2\C(=O)Nc3ccc(C(=O)NCCc4c[nH]cn4)cc32)cc1 | Tyrosine-protein kinase Fes/Fps (Homo sapiens) | T |
| CC1=C(C(=O)Nc2ccc3[nH]ncc3c2)C(c2ccc(Cl)c(Cl)c2)CC(=O)N1 (centres undefined) | Tyrosine-protein kinase Fes/Fps (Homo sapiens) | T |
| CCc1cccc(NC(=O)Nc2ccc(Oc3ccc4nc(NC(=O)OC)[nH]c4c3)cc2)c1 | Tyrosine-protein kinase Fes/Fps (Homo sapiens) | F |
| CN1CCC(C(=O)Nc2n[nH]c3nnc(-c4ccccc4)cc23)CC1 | Tyrosine-protein kinase Fes/Fps (Homo sapiens) | T |
| COc1ccc2cc(-c3c(-c4ccncc4)nc(-c4ccc([S+](C)[O-])cc4)n3C)ccc2c1 (centres undefined) | Tyrosine-protein kinase Fes/Fps (Homo sapiens) | T |
| CCn1c(-c2nonc2N)nc2cncc(C(=O)N3CC[C@H](N)C3)c21 | Tyrosine-protein kinase Fes/Fps (Homo sapiens) | T |
| CC1=C(C(=O)Nc2ccc3[nH]ncc3c2)C(c2ccc(F)cc2)NC(=O)N1 (centres undefined) | Tyrosine-protein kinase Fes/Fps (Homo sapiens) | F |

----------
inhibition overview
Target of assay: cAMP-dependent protein kinase catalytic subunit PRKX (Homo sapiens);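 further: each value is the mean percent inhibition of the kinase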
Condition details: at 1 µM

| Compound | Unit name | inhibition |
| --- | --- | --- |
| CC(=O)Nc1cccc(C#Cc2cncnc2Nc2ccc(OCc3cccc(F)c3)c(Cl)c2)n1 | % | 5.08 |
| Nc1ncnc2occ(-c3ccc(NC(=O)Nc4cc(C(F)(F)F)cc(C(F)(F)F)c4)cc3)c12 | % | -3.64 |
| Nc1nc(-c2ccccn2)c(-c2ccc3ncccc3n2)s1 | % | 1.92 |
| Cc1ccc(NC(=O)c2ccnc(N3CCCC3)c2)cc1-c1ccc(C(=O)NCC2CC2)cc1 | % | 2.53 |
| O=C(Nc1n[nH]c2nc(-c3ccco3)c(Br)cc12)C1CC1 | % | -0.27 |
| CN1CCC(C(=O)Nc2n[nH]c3nnc(-c4ccccc4)cc23)CC1 | % | 6.09 |
| Nc1nc(-c2ccc3c(c2)C(=Cc2cc(Br)c(O)c(Br)c2)C(=O)N3)cs1 | % | 0.42 |
| Cn1cc(C=C2C(=O)Nc3cccnc32)c2ccccc21 | % | 0.1 |
| CS(=O)(=O)Nc1ccc(N/C=C2\C(=O)Nc3ccccc32)cc1 | % | 0.66 |
| COC(=O)Nc1nc2cc(Oc3ccc(NC(=O)Nc4cccc(C(=O)O)c4)cc3)ccc2[nH]1 | % | 1.8 |
| COc1ccc2cc(-c3c(-c4ccncc4)nc(-c4ccc([S+](C)[O-])cc4)n3C)ccc2c1 (stereo not given) | % | -0.32 |
| COc1cc2ncn(-c3cc(O[C@@H](C)c4ccccc4Cl)c(C(N)=O)s3)c2cc1OC | % | 3.91 |
| CCCN1CCC(Oc2cc(Nc3nc(Nc4cccc(F)c4C(N)=O)c4cc[nH]c4n3)c(OC)cc2Cl)CC1 | % | 7.12 |
| CC1=C(C(=O)Nc2ccc3[nH]ncc3c2)C(c2ccc(F)cc2)NC(=O)N1 (stereo not given) | % | 53.4 |
| Cc1nnc(-c2ccc(C)c(-c3ccc(C(=O)Nc4cccc(C#N)c4)cc3)c2)o1 | % | 1.68 |
| COc1ccc(-c2ccncc2)cc1C(N)=O | % | 3.27 |
| CN(C)c1cc2c(Nc3ccc4nc(Cc5ccccc5)[nH]c4c3)ncnc2cn1 | % | 2.25 |
| CS(=O)(=O)CCNCc1ccc(-c2ccc3ncnc(Nc4ccc(OCc5ccccc5)c(Cl)c4)c3c2)o1 | % | 0.52 |
| COc1ccccc1Nc1ncc(-c2ccccc2)o1 | % | 3.03 |
| COc1cc2ncn(-c3cc(OCc4ccccc4C(F)(F)F)c(C(N)=O)s3)c2cc1OC | % | 2.8 |
